FYI, the data here is from patent US20260285853A1.

test system: MYB mRNA; assay: Gene panel canonical junction qPCR assay, decrease in CJ mRNA, Table 3; type: cell-based; conditions: decrease in CJ mRNA levels, canonical junction qPCR, gene panel
pIC50: −log10 of the molar value.
value kind: pIC50

// query # pIC50 lookup, item COc1nc2c(C(=O)Nc3cc(F)c4nn(C)cc4c3)ccc(N3CCN[C@@H](CO)C3)c2s1 [Compound 743, 2,2,2-trifluoroacetate]
// result > 7.00

// query # pIC50 lookup, item "Cn1cc2cc(NC(=O)c3ccc(N4CCC(NC5CC5)CC4)c4cn(C)nc34)cc(CNc3cncs3)c2n1"
// result 6.00 to 7.00

// query # pIC50 lookup, item "CNC1CCN(c2ccc(C(=O)Nc3cn4cc(C)nc(CNS(C)(=O)=O)c4n3)c3nn(C)cc23)CC1"
// result 5.00 to 6.00

// query # pIC50 lookup, item "COc1nc2c(C(=O)Nc3ccc4nn(C)cc4c3C(C)=O)ccc(N3C[C@H](C)N[C@@H](C)C3)c2s1"
// result < 5.00

// query # pIC50 lookup, item "Cc1cn2cc(NC(=O)c3ccc(N4CCNCC4)c4cn(C)nc34)nc2c(CNS(C)(=O)=O)n1"
// result < 5.00

// query # pIC50 lookup, item "COc1cc2c(N3CCC(NC4CC4)CC3)ccc(C(=O)Nc3cn4cc(C)nc4c(F)c3OC)n2n1"
// result > 7.00

// query # pIC50 lookup, item "COc1nc2c(C(=O)Nc3cc(F)c4nn(C)cc4c3)ccc(N3C[C@H](C)N[C@@H](C)C3)c2s1"
// result > 7.00

// query # pIC50 lookup, item "Cn1cc2cc(NC(=O)c3ccc(N4CCC(NC5CC5)CC4)c4cn(C)nc34)cc(CNc3nccs3)c2n1"
// result 5.00 to 6.00

// query # pIC50 lookup, item "COc1nc2c(C(=O)Nc3cc(C)c4nn(C)cc4c3OC)ccc(N3C[C@H](C)N[C@@H](C)C3)c2s1"
// result < 5.00

// query # pIC50 lookup, item "Cn1cc2cc(NC(=O)c3ccc(N4CCCCC4)c4cn(C)nc34)cc(CNS(C)(=O)=O)c2n1"
// result < 5.00

// query # pIC50 lookup, item "COc1c(NC(=O)c2ccc(N3CCC(NC4CC4)CC3)c3c2OCO3)cn2cc(C)nc2c1F"
// result > 7.00

// query # pIC50 lookup, item "CCNC1CCN(c2ccc(C(=O)Nc3cn4cc(C)nc(C)c4n3)n3nc(C)cc23)CC1"
// result 6.00 to 7.00
